Reference source: patent US11129829B2

Test system: Target 2
assay-name: qPCR assay, Target 2 splicing potency (poison exon 12c inclusion)
Assay type: cell-based
experimental-parameters: WT transcript
Experimental: A-673 or SK-N-MC cells were treated with different concentrations of SMSM compounds or DMSO for 24 hours. […] After cDNA synthesis, samples were analyzed by qPCR using target transcript specific Taqman primers/probes (FIGS. 7, 19, 20, and 29). Absolute copy numbers were determined using standard curves from G-block DNA fragments (FIGS. 8, 9, and 21). Relative gene expression was determined by comparing the gene expression in the presence of an SMSM and DMSO (FIGS. 10-16 and 22-28).
IC50 less than 100 nM is criterion met; IC50 greater than or equal to 100 nM is criterion not met.

Strictly below 100 nM in IC50? COc1cc(-c2ccc(-c3ccc(N(C)[C@H]4C[C@]5(C)CCC[C@](C)(C4)N5)nn3)c(O)c2)cnn1
criterion not met

Next entry: CN(c1ccc(-c2ccc(-c3ccn(C)c(=O)c3)cc2O)nn1)[C@H]1C[C@]2(C)CCC[C@](C)(C1)N2
criterion not met

Do the same for CN(c1ccc(-c2cc(F)c(-c3cn[nH]c3)cc2O)nn1)[C@@H]1C[C@H]2CCC[C@@H](C1)N2 please
criterion met

Queued: COc1cc(-c2ccc(-c3ccc(N(C)[C@H]4C[C@]5(C)CC[C@](C)(C4)N5)nn3)c(O)c2)cnn1
criterion not met

Next compound: CN(c1ccc(-c2cc(F)c(-c3ccn(C)c(=O)c3)cc2O)nn1)[C@H]1C[C@]2(C)CCC[C@](C)(C1)N2
criterion not met

Likewise for CNC(=O)c1ccc2cc(-c3ccc(N(C)[C@H]4C[C@]5(C)CCC[C@](C)(C4)N5)nn3)c(O)cc2n1 ?
criterion met

Another compound: CN(c1ccc(-c2cc(F)c(-c3ccn(CF)c(=O)c3)cc2O)nn1)[C@H]1C[C@]2(C)CCC[C@](C)(C1)N2
criterion met

Next compound: CN(c1ccc(-c2cc(F)c(-c3cc(=O)n(C)cn3)cc2O)nn1)[C@H]1C[C@]2(C)CC[C@](C)(C1)N2
criterion not met

Quick one: CN(c1ccc(-c2ccc(-c3cnn(CF)c3)cc2O)nn1)[C@H]1C[C@]2(C)CC[C@](C)(C1)N2
criterion not met

What do you have for CNC(=O)/C=C/c1cc(O)c(-c2ccc(N(C3CC3)[C@H]3C[C@]4(C)CCC[C@](C)(C3)N4)nn2)cc1F ?
criterion not met

Same thing, different compound: COc1cc(-c2ccc(-c3ccc(N(C)[C@H]4C[C@]5(C)CC[C@](C)(C4)N5)nn3)c(O)c2)ncn1
criterion not met

Entry to check: CNC(=O)/C=C/c1cc(O)c(-c2ccc(N(C3CC3)[C@H]3C[C@]4(C)CC[C@](C)(C3)N4)nn2)cc1F
criterion not met

Item: CNC(=O)/C=C/c1cc(O)c(-c2ccc(N(C)[C@@H]3C[C@H]4CCC[C@@H](C3)N4)nn2)cc1F
criterion not met

Next compound up: CNC(=O)/C=C/c1cc(O)c(-c2ccc(N(C)[C@H]3C[C@]4(C)CCC[C@](C)(C3)N4)nn2)cc1F
criterion not met
